assay: Primary fluorescence-based thiol-reactive (MSTI) qHTS assay for identification of artifact compounds. (AID 1845221); conditions: MSTI thiol-reactivity probe, 1 h; series mostly up to 53.8 µM; note: nearly all actives have a fitted effect of over 65% in size
Results filed as inconclusive are left out. Activity calls are given as the source filed them. Calls come from the whole dose curve; as a rule, active = well fitted inhibition curve with a large enough effect; inconclusive = small, poorly fitted or top-dose-only effect; inactive = no such curve, though single readings can be large or run the other way.
Outcomes: yes (1) (active), no (0) (inactive)

compound="COc1ccc(C2(C#N)CCC(C(=O)O)CC2)cc1OC1CCCC1 (configuration not stated)" class="no (0)"
compound=CC(C)c1nc(CN(C)C(=O)N[C@H](C(=O)N[C@@H](Cc2ccccc2)C[C@H](O)[C@H](Cc2ccccc2)NC(=O)OCc2cncs2)C(C)C)cs1 class="no (0)"
compound="OC(CN1CCN(c2cccc(Cl)c2)CC1)C(c1ccccc1)c1ccccc1 (configuration not stated)" class="no (0)"
compound=Cc1nc(Nc2ncc(C(=O)Nc3c(C)cccc3Cl)s2)cc(N2CCN(CCO)CC2)n1 class="no (0)"
compound=COc1c(O)cc2c(c1O)[C@@H]1O[C@H](CO)[C@@H](O)[C@H](O)[C@H]1OC2=O class="yes (1)"
compound="CN(C)CCCC1(c2ccc(F)cc2)OCc2cc(C#N)ccc21 (configuration not stated)" class="no (0)"
compound="COCCCOc1ccnc(CS(=O)c2nc3ccccc3[nH]2)c1C (configuration not stated)" class="no (0)"
compound=O=C(NOCC1CC1)c1ccc(F)c(F)c1Nc1ccc(I)cc1Cl class="no (0)"
compound=CN(C)C(=O)[C@H](O)[C@H](Cc1ccccc1)NC(=O)c1cc2cc(Cl)ccc2[nH]1 class="no (0)"
compound="CCC1=C(C)CN(C(=O)NCCc2ccc(S(=O)(=O)NC(=O)NC3CCC(C)CC3)cc2)C1=O (configuration not stated)" class="no (0)"
compound=CC(C)C[C@H](NC(=O)[C@H](Cc1ccccc1)NC(=O)c1cnccn1)B(O)O class="no (0)"
compound="Cc1nccn1CC1CCc2c(c3ccccc3n2C)C1=O (configuration not stated)" class="no (0)"

###

system: OV90; experiment: Primary qHTS to identify gynecologic anti-cancer compounds using libraries of approved drugs and bioactive compounds (AID 1345084); conditions: Gynecologic cancer cell panel viability, ATPlite luminescence, 48 h; series mostly up to 57.5 µM; note: nearly all actives have a fitted effect of over 55% in size
Inconclusive results are not listed. Active and inactive are the calls of the source. Calls come from the whole dose curve; as a rule, active = well fitted cell-killing curve with a large enough effect; inconclusive = small, poorly fitted or top-dose-only effect, or effect the other way; inactive = flat fitted curve, though single readings scatter.
Outcomes: TRUE (active), FALSE (inactive)

molecule=COC1=C(OC)C(=O)C(CCCCCCCCCCO)=C(C)C1=O class=FALSE
molecule="CC1=C(C)C(=O)C(C(CCCCCC(=O)O)c2ccccc2)=C(C)C1=O (stereo unspecified)" class=FALSE
molecule=CC1=C(C(=O)O)N2C(=O)[C@@H](NC(=O)[C@H](N)C3=CCC=CC3)[C@H]2SC1 class=FALSE
molecule=O=C1CCc2ccc(OCCCCN3CCN(c4cccc(Cl)c4Cl)CC3)cc2N1 class=FALSE
molecule=O=C(NCCO[N+](=O)[O-])c1cccnc1 class=FALSE
molecule=CC1(C)NC(=O)N(c2ccc([N+](=O)[O-])c(C(F)(F)F)c2)C1=O class=FALSE
molecule=CC(C)c1ccc2oc3nc(N)c(C(=O)O)cc3c(=O)c2c1 class=TRUE
molecule="OC(CN1CCN(c2cccc(Cl)c2)CC1)C(c1ccccc1)c1ccccc1 (stereo unspecified)" class=FALSE
molecule=Cc1nc2n(c(=O)c1CCN1CCC(c3noc4cc(F)ccc34)CC1)CCCC2 class=FALSE
molecule=CC(C)C[C@H](NC(=O)[C@H](Cc1ccccc1)NC(=O)c1cnccn1)B(O)O class=TRUE
molecule=N=C(N=C(N)N)N1CCOCC1 class=FALSE

###

target: DNA dC->dU-editing enzyme APOBEC-3G (Homo sapiens); assay: qHTS for inhibitors of Vif-A3G interactions: Validation (AID 588379); details: Vif-A3G protein interaction assay; series mostly up to 46.1 µM; note: 0% is about no effect
The source made the active and inactive calls. Calls follow the shape of the dose curve; as a rule, active = well fitted inhibition curve with a large enough effect; inconclusive = small, poorly fitted or top-dose-only effect; inactive = flat fitted curve, though single readings scatter.
VALUE_KIND: outcome

molecule="COC(=O)C1=C(C)NC(C)=C(C(=O)OC(C)C)C1c1cccc2nonc12 (stereo not drawn)" reported=inactive
molecule=O=C1NC(=O)C(c2ccccc2[N+](=O)[O-])=C1Nc1ccc(O)c(Cl)c1 reported=inactive
molecule=CC(=O)Nc1ccc(O)cc1 reported=inactive
molecule=CNC[C@H](O)c1ccc(O)c(O)c1 reported=inactive
molecule=O=c1cc(N2CCOCC2)oc2c(-c3ccccc3)cccc12 reported=inactive
molecule="OC(CN1CCN(c2cccc(Cl)c2)CC1)C(c1ccccc1)c1ccccc1 (stereo not drawn)" reported=inactive
molecule=O=C(CCc1ccc(O)cc1)c1c(O)cc(O)cc1O reported=inactive
molecule=CCOC(=O)C1=C(O)C(=O)N(Cc2ccccc2)C1 reported=inactive
molecule=O=c1c(O)c(-c2cc(O)c(O)c(O)c2)oc2cc(O)cc(O)c12 reported=inactive
molecule=Cc1cccc(C#Cc2ccccc2)n1 reported=inactive
molecule=CC(C)c1ccc2c(c1)c(SC(C)(C)C)c(CC(C)(C)C(=O)O)n2Cc1ccc(Cl)cc1 reported=inactive
molecule=CC(=O)N1CCN(c2ccc(OC[C@H]3CO[C@](Cn4ccnc4)(c4ccc(Cl)cc4Cl)O3)cc2)CC1 reported=inactive
molecule=CCN(CC)CCOc1ccc(Cc2ccccc2)cc1 reported=inactive

###

assay: Quantitative High-Throughput drug screen in 47 multiple myeloma cell lines against the NCATS MIPE library collection: KMS28PE_JCRB cell viability assay (AID 1918983); conditions: KMS28PE multiple myeloma viability, CellTiter-Glo ATP, 48 h; series mostly up to 45.8 µM; note: nearly all actives have a fitted effect of over 35% in size
Records with an inconclusive call do not appear. The source made the active and inactive calls. Calls come from the whole dose curve; as a rule, active = well fitted cell-killing curve with a large enough effect; inconclusive = small, poorly fitted or top-dose-only effect, or effect the other way; inactive = no such curve, though single readings can be large or run the other way.
Classes used: TRUE = active, FALSE = inactive

molecule=CCN(CC)CCOc1ccc(Nc2ncc3cc(-c4c(Cl)cccc4Cl)c(=O)n(C)c3n2)cc1 class=TRUE
molecule="CC(S)C(=O)NCC(=O)O (stereo not given)" class=FALSE
molecule=O=C(CCc1ccc(O)cc1)c1c(O)cc(O)cc1O class=TRUE
molecule=O=C1c2ccccc2-c2n[nH]c3cccc1c23 class=FALSE
molecule=Clc1ccc2c(N3CCN(CCCN4CCN(c5ccnc6cc(Cl)ccc56)CC4)CC3)ccnc2c1 class=FALSE
molecule="CCCCN(CCCC)CCC(O)c1cc2c(Cl)cc(Cl)cc2c2cc(C(F)(F)F)ccc12 (stereo not given)" class=TRUE
molecule=Cc1cc(=O)c2c(O)c3c(O)cc(=O)c4c3c3c(cc(O)c1c23)C(C)(C)C=4O class=TRUE
molecule="COc1cc2c(cc1OC)C1CC(=O)C(CC(C)C)CN1CC2 (stereo not given)" class=FALSE
molecule=CC1(C)NC(=O)N(c2ccc([N+](=O)[O-])c(C(F)(F)F)c2)C1=O class=TRUE
molecule=CC(=O)N1CCN(c2ccc(OC[C@H]3CO[C@](Cn4ccnc4)(c4ccc(Cl)cc4Cl)O3)cc2)CC1 class=TRUE

###

// reported activity, negative = cell killing per item
assay: Drug repurposing screens with cells derived from glioblastoma tumor samples (AID 1345199); settings: GBM patient neurospheres viability, ATP luminescence, 48 h; at 21.2 µM (top of the series); tumour line D; note: % is set by controls: 0 for no effect and ±100 for the full control effect; nearly all actives have a fitted effect of over 40% in size
Inconclusive results are not listed.
VALUE_KIND: activity, negative = cell killing (%)

compound=COc1c(O)cc2c(c1O)[C@@H]1O[C@H](CO)[C@@H](O)[C@H](O)[C@H]1OC2=O reported=-25.7
compound=COc1cc(OC)c(C(=O)CCCN2CCCC2)c(OC)c1 reported=-17.1
compound=Cc1cc(=O)oc2cc(O)ccc12 reported=-8.02
compound=CN1C(C(=O)Nc2ccccn2)=C(O)c2sccc2S1(=O)=O reported=-11.3
compound="Cc1ccc(S(=O)(=O)NC(=O)NN2CC3CCCC3C2)cc1 (stereo not drawn)" reported=-18.4
compound=NNc1nncc2ccccc12 reported=-12.5
compound="CC1Cc2ccccc2N1NC(=O)c1ccc(Cl)c(S(N)(=O)=O)c1 (stereo not drawn)" reported=1.12
compound=Cc1cc2cc3c(C)cc(=O)oc3c(C)c2o1 reported=-30.4

###

experiment: Quantitative High-Throughput drug screen in 47 multiple myeloma cell lines against the NCATS MIPE library collection: AMO1_DSMZ cell viability assay (AID 1918927; note: nearly all actives have a fitted effect of over 30% in size); conditions: AMO1 myeloma cells viability, CellTiter-Glo ATP luminescence, 48 h; series mostly up to 45.8 µM
Inconclusive results are not listed. The source made the active and inactive calls. Calls come from the whole dose curve; as a rule, active = well fitted cell-killing curve with a large enough effect; inconclusive = small, poorly fitted or top-dose-only effect, or effect the other way; inactive = no such curve, though single readings can be large or run the other way.
Labels: active, inactive

molecule=C[C@H](Cc1ccc(O)c(O)c1)[C@@H](C)Cc1ccc(O)c(O)c1 class=active
molecule=c1cnc2cc3c(cc2n1)C1CNCC3C1 class=inactive
molecule=Oc1ccc(OCc2ccccc2)cc1 class=inactive
molecule="COc1ccc(C2(C#N)CCC(C(=O)O)CC2)cc1OC1CCCC1 (configuration not stated)" class=inactive
molecule=O=Nc1c(-c2c(O)[nH]c3cc(Br)ccc23)[nH]c2ccccc12 class=active
molecule=c1ccc2[nH]c(-c3cscn3)nc2c1 class=inactive
molecule=CC(C)(S)[C@@H](N)C(=O)O class=inactive
molecule=Cc1cc(=O)oc2cc(O)ccc12 class=inactive
molecule=C[C@]12CCC(=O)C=C1CC[C@@H]1[C@H]2[C@@H](O)C[C@@]2(C)[C@H]1CC[C@]2(O)C(=O)CO class=inactive
molecule="C[C@@H](N)C1CCC(C(=O)Nc2ccncc2)CC1 (some centres not stated)" class=inactive
molecule=CCCCc1ccc2nc(NC(=O)OC)[nH]c2c1 class=inactive
molecule=CNC[C@H](O)c1ccc(O)c(O)c1 class=inactive
